Biological target: PI3Kalpha (Homo sapiens, UniProt P42336)
Construct: His (N); host or cells: SF9 insect cells (baculovirus)
Sequence (P42336 whole entry): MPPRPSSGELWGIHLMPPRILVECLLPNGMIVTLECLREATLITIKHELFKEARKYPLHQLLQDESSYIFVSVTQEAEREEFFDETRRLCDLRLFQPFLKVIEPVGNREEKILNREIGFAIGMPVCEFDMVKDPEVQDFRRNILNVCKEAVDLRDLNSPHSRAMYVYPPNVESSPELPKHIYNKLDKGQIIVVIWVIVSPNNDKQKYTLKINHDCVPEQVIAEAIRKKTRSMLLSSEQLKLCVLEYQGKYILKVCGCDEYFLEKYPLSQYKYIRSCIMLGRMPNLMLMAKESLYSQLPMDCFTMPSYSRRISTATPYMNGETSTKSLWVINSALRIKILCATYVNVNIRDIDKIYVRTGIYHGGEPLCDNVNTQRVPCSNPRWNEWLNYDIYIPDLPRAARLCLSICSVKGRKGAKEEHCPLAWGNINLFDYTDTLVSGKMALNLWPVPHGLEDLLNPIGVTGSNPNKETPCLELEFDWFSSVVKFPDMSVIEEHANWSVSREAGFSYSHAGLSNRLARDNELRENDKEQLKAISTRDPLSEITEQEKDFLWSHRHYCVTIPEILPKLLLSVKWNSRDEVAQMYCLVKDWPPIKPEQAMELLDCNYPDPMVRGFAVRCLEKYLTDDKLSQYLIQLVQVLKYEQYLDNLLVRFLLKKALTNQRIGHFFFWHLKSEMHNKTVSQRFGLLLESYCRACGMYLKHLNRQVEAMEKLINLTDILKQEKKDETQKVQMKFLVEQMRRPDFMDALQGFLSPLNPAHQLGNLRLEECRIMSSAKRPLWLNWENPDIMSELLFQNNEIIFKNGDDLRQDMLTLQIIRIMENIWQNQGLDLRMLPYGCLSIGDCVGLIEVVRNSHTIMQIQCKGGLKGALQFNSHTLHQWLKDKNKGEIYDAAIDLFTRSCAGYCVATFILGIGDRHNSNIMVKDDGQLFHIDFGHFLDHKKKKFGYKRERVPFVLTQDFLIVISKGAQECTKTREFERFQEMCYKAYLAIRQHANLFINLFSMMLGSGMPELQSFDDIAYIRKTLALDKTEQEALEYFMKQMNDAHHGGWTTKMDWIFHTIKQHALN
Sequence (P27986 whole entry partner): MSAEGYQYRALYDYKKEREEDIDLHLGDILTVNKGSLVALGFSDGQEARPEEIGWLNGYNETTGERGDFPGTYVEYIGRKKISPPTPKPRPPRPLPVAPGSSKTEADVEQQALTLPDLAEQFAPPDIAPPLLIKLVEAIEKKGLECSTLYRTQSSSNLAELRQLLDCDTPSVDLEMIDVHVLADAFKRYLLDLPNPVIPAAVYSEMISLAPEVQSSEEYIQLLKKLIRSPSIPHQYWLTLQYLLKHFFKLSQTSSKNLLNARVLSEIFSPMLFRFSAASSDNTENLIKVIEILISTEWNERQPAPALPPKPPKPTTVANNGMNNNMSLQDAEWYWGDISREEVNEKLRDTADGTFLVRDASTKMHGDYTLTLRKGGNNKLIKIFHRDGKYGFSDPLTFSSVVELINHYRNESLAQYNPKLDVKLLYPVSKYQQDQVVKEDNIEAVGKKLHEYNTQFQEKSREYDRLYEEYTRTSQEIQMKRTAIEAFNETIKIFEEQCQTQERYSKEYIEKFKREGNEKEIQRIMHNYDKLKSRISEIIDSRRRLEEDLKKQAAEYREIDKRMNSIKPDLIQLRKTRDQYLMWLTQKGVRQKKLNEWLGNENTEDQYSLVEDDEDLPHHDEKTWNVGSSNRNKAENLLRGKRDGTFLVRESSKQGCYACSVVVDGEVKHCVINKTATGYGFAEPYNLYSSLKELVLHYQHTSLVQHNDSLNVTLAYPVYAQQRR
Test: Human PI3Kα enzyme assay (HTRF)
Format: biochemical
Conditions: read-out: PI3Kalpha % inh
property.measured: inhibition at 1.11 µM (%)
Enter your answer as a number in %; do not include the unit.

# input Would you kindly share the measured inhibition at 1.11 µM for N#Cc1c(N2CCOCC2)sc2c1C(c1ccc(Cl)cc1)OC2=O (centres unmarked) ?
# output 10.8

# input Would you kindly share the measured inhibition at 1.11 µM for O=C1CC(c2cccc(Cl)c2)c2cc(N3CCOCC3)sc21 (centres unmarked) ?
# output 15.1

# input Would you kindly share the measured inhibition at 1.11 µM for O=C1CC(c2ccc(Cl)cc2)c2cc(N3CCOCC3)sc21 (centres unmarked) ?
# output 15.7

# input Would you kindly share the measured inhibition at 1.11 µM for O=C1NCCC(c2ccc(Cl)cc2)c2nc(N3CCOCC3)sc21 (centres unmarked) ?
# output 13.9

# input Would you kindly share the measured inhibition at 1.11 µM for O=C1N[C@@H](CO)[C@H](c2ccc(Cl)c(Cl)c2)c2cc(N3CCOCC3)sc21 (relative stereo) ?
# output 39.6

# input Would you kindly share the measured inhibition at 1.11 µM for NC(=O)[C@@H]1NC(=O)c2sc(N3CCOCC3)cc2[C@H]1c1ccc(Cl)c(Cl)c1 (relative stereo) ?
# output 40.4

# input Would you kindly share the measured inhibition at 1.11 µM for N#Cc1c(N2CCOCC2)sc2c1C(c1ccc(Cl)cc1)NC2=O (centres unmarked) ?
# output 33

# input Would you kindly share the measured inhibition at 1.11 µM for O=C1OC2(CCNC(=O)c3sc(N4CCOCC4)nc32)c2ccc(Cl)cc21 (centres unmarked) ?
# output 16.1

# input Would you kindly share the measured inhibition at 1.11 µM for O=S1(=O)NCC(O)(c2ccc(Cl)cc2)c2cc(-c3ccncc3)sc21 (racemic) [Compound 26] ?
# output 6.6

# input Would you kindly share the measured inhibition at 1.11 µM for O=C1NCC(c2ccc3ccncc3c2)c2nc(N3CCOCC3)sc21 (centres unmarked) ?
# output 25.9

# input Would you kindly share the measured inhibition at 1.11 µM for O=C1CCC(c2ccc(Cl)cc2)c2cc(-c3ccncc3)sc21 (racemic) ?
# output 3.1

# input Would you kindly share the measured inhibition at 1.11 µM for O=C1NCCC(c2ccc3ccccc3c2)c2cc(N3CCOCC3)sc21 (centres unmarked) ?
# output 66.9

# input Would you kindly share the measured inhibition at 1.11 µM for O=C1NCC(c2ccc(Cl)cc2)c2c1sc(N1CCOCC1)c2CO (single isomer, unassigned) ?
# output 4.71

# input Would you kindly share the measured inhibition at 1.11 µM for CC1(C)CC(=O)c2sc(-c3ccncc3)cc2C1c1ccc(Cl)cc1 (centres unmarked) ?
# output 0.2

# input Would you kindly share the measured inhibition at 1.11 µM for NC(=O)c1cc(C2CCNC(=O)c3sc(N4CCOCC4)nc32)ccc1Cl (centres unmarked) ?
# output 5.27

# input Would you kindly share the measured inhibition at 1.11 µM for COc1cc(C2CC(=O)c3sc(N4CCOCC4)cc32)ccc1Cl (centres unmarked) ?
# output 12.9

# input Would you kindly share the measured inhibition at 1.11 µM for CC1(C)CC(=O)c2sc(-c3ccncc3)cc2C1(O)c1ccc(Cl)cc1 (centres unmarked) ?
# output -3.8
